Assay Overview: Solubility of free base in various media
Format: physicochemical
Condition: water, pH 7.4, aqueous buffer; read-out: solubility in water
Endpoint Name: solubility

Which solubility value belongs to Nc1ncc(-c2cnn(CCO)c2)c2scc(-c3ccc(NC(=O)Nc4cccc(F)c4)cc3)c12 [API] ?
< 0.03 µg/mL

---

Assay Overview: Solubility of free base in various media
Format: physicochemical
Condition: Ethanol, organic solvent or mixture; read-out: Solubility
From the text: Solubility of N-(4-{4-amino-7-[1-(2-hydroxyethyl)-1H-pyrazol-4-yl]thieno[3,2-c]pyridin-3-yl}phenyl)-N′-(3-fluorophenyl)urea Free Base in Various Media
Endpoint Name: solubility (µg/mL)
Write down the numeric answer in µg/mL and omit the unit.

Which solubility value belongs to Nc1ncc(-c2cnn(CCO)c2)c2scc(-c3ccc(NC(=O)Nc4cccc(F)c4)cc3)c12 ?
130
